Hello, the source for this data is the supplement of paper PMC6757056, in case you need it.

Give measured normalized RNA/DNA level without ligand (log10) for each item. Keep answers brief.
B1: library; a variant is named by its letters at N, in order (parent)
chain: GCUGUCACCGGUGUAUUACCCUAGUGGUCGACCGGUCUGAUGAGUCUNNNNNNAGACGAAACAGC

- Variants of: B1
- experiment-notes: normalized RNA/DNA level without ligand (relative to sTRSVctl = 100) (log10 (% of sTRSVctl)); ligand: hypoxanthine (xanthine aptamer); higher = less ribozyme self-cleavage, higher mRNA level
- run-parameters: HEK293T, reporter: mCherry (pCS4076), ligand present: no
Give only the figure.

## Task What measured normalized RNA/DNA level without ligand (log10) goes with GCUGUCACCGGUGUAUUACCCUAGUGGUCGACCGGUCUGAUGAGUCUCGAUAUAGACGAAACAGC [CGAUAU] ?
## Result 1.74

## Task What measured normalized RNA/DNA level without ligand (log10) goes with GCUGUCACCGGUGUAUUACCCUAGUGGUCGACCGGUCUGAUGAGUCUGCCUGUAGACGAAACAGC [GCCUGU] ?
## Result 1.83

## Task What measured normalized RNA/DNA level without ligand (log10) goes with GCUGUCACCGGUGUAUUACCCUAGUGGUCGACCGGUCUGAUGAGUCUCGCCCAAGACGAAACAGC [CGCCCA] ?
## Result 1.92

## Task What measured normalized RNA/DNA level without ligand (log10) goes with GCUGUCACCGGUGUAUUACCCUAGUGGUCGACCGGUCUGAUGAGUCUAGUGAUAGACGAAACAGC [AGUGAU] ?
## Result 1.77

## Task What measured normalized RNA/DNA level without ligand (log10) goes with GCUGUCACCGGUGUAUUACCCUAGUGGUCGACCGGUCUGAUGAGUCUACGGUUAGACGAAACAGC [ACGGUU] ?
## Result 1.36

## Task What measured normalized RNA/DNA level without ligand (log10) goes with GCUGUCACCGGUGUAUUACCCUAGUGGUCGACCGGUCUGAUGAGUCUGACGAUAGACGAAACAGC [GACGAU] ?
## Result 1.75

## Task What measured normalized RNA/DNA level without ligand (log10) goes with GCUGUCACCGGUGUAUUACCCUAGUGGUCGACCGGUCUGAUGAGUCUUAUGUGAGACGAAACAGC [UAUGUG] ?
## Result 1.7

## Task What measured normalized RNA/DNA level without ligand (log10) goes with GCUGUCACCGGUGUAUUACCCUAGUGGUCGACCGGUCUGAUGAGUCUAUUGGAAGACGAAACAGC [AUUGGA] ?
## Result 1.65

## Task What measured normalized RNA/DNA level without ligand (log10) goes with GCUGUCACCGGUGUAUUACCCUAGUGGUCGACCGGUCUGAUGAGUCUCAGUACAGACGAAACAGC [CAGUAC] ?
## Result 1.67

## Task What measured normalized RNA/DNA level without ligand (log10) goes with GCUGUCACCGGUGUAUUACCCUAGUGGUCGACCGGUCUGAUGAGUCUGCGCCGAGACGAAACAGC [GCGCCG] ?
## Result 1.44

## Task What measured normalized RNA/DNA level without ligand (log10) goes with GCUGUCACCGGUGUAUUACCCUAGUGGUCGACCGGUCUGAUGAGUCUGAAGGUAGACGAAACAGC [GAAGGU] ?
## Result 1.73

## Task What measured normalized RNA/DNA level without ligand (log10) goes with GCUGUCACCGGUGUAUUACCCUAGUGGUCGACCGGUCUGAUGAGUCUCCGUAAAGACGAAACAGC [CCGUAA] ?
## Result 1.67

## Task What measured normalized RNA/DNA level without ligand (log10) goes with GCUGUCACCGGUGUAUUACCCUAGUGGUCGACCGGUCUGAUGAGUCUAAGCUCAGACGAAACAGC [AAGCUC] ?
## Result 1.96

## Task What measured normalized RNA/DNA level without ligand (log10) goes with GCUGUCACCGGUGUAUUACCCUAGUGGUCGACCGGUCUGAUGAGUCUGCACCGAGACGAAACAGC [GCACCG] ?
## Result 1.62

## Task What measured normalized RNA/DNA level without ligand (log10) goes with GCUGUCACCGGUGUAUUACCCUAGUGGUCGACCGGUCUGAUGAGUCUAGUCGCAGACGAAACAGC [AGUCGC] ?
## Result 1.81

## Task What measured normalized RNA/DNA level without ligand (log10) goes with GCUGUCACCGGUGUAUUACCCUAGUGGUCGACCGGUCUGAUGAGUCUUCUAUGAGACGAAACAGC [UCUAUG] ?
## Result 1.74

## Task What measured normalized RNA/DNA level without ligand (log10) goes with GCUGUCACCGGUGUAUUACCCUAGUGGUCGACCGGUCUGAUGAGUCUUACUGAAGACGAAACAGC [UACUGA] ?
## Result 1.74

## Task What measured normalized RNA/DNA level without ligand (log10) goes with GCUGUCACCGGUGUAUUACCCUAGUGGUCGACCGGUCUGAUGAGUCUAGCCAAAGACGAAACAGC [AGCCAA] ?
## Result 1.8
